Data credit: paper PMC6030392

ASSAY COMMENT: Stability in culture medium at 37°C
Format: physicochemical
MEASUREMENT NAME: half-life

COMPOUND | MEASUREMENT NAME | MEASURED RESULT
Cn1nnc2c(C(N)=O)ncn2c1=O [temozolomide] | half-life | ~30 min
